system: ABL1-phosphorylated; conditions: concentration: 1 μM, replicates: in singlicate; n = 1

compound	%Inh, %
COc1cc2nccc(Nc3ccc(OCc4ccc(NC(C)=O)cc4)cc3)c2cc1OC.Cl	0
OCCCNc1nccc(-c2c(-c3cccc(C(F)(F)F)c3)nn3cc(C(F)(F)F)ccc23)n1	0
CCC(=O)c1c(-c2ccccc2)c2cc(Cl)ccc2c(=O)n1Cc1cc(C(=O)NC2CC2)n(C)n1	0
CCS(=O)c1ccc(-c2coc3ccc(-c4nnc(C)o4)cc23)cc1 (stereo not drawn)	0
C[C@@H]1CC[C@H](C(=O)NC2CCCCC2)CN1c1cc(-c2ccc3c(N)n[nH]c3c2)nc(N)n1	0
COc1cc(Nc2nccc(N3CCC(NC(=O)C(C)c4ccc(Cl)cc4)C3)n2)cc(OC)c1OC (stereo not drawn)	0
COC(=O)c1c(-c2ccccc2)c2cc(Br)ccc2c(=O)n1Cc1ccc(NC(=O)CCC(=O)O)cc1	0
Nc1n[nH]c2ncc(-c3ccccc3)cc12	18
FC(F)(F)c1ccc(-c2ncn(CCCN3CCOCC3)c2-c2ccncc2)cc1	0
Fc1cccc(CSc2nnc(-c3ccc4c(c3)CCO4)o2)c1	7
COc1cc2ncn(-c3cc(OCCCc4ccccc4)c(C(N)=O)s3)c2cc1OC	0
Cc1nnc(-c2ccc3ncn(-c4ccc(S(C)=O)cc4)c3c2)o1 (stereo not drawn)	0
O=C(Nc1n[nH]c2nc(-c3ccccc3)c(Br)cc12)C1CC1	11
COC(=O)c1c(-c2ccccc2)c2cc(C)ccc2c(=O)n1Cc1ccccc1	0
O=c1cc(N2CCOCC2)nc2n(Cc3ccc(F)c(Cl)c3)ccn12	0
O=C(Nc1ccc2c(c1)OCO2)NC1CCN(c2ccnc(NCc3ccc(F)cc3)n2)CC1	0
COc1ccc(Nc2nccc(N3CCC(NS(=O)(=O)c4ccc(NC(C)=O)cc4)C3)n2)cc1 (stereo not drawn)	0
Cc1ccccc1COc1cc(-n2cnc3cc(Cl)ccc32)sc1C(N)=O	14

* * *

tested on: PCTK3; construct: gene CDK18; settings: concentration: 1 μM, replicates: in singlicate; n = 1
value type: %Inh

compound structure	value type	data value
Fc1cccc(CSc2nnc(-c3ccc4c(c3)CCO4)o2)c1	%Inh	0%
O=C(NCCNc1ccnc(Nc2ccc(F)cc2)n1)Nc1ccc2c(c1)OCO2	%Inh	0%
CCn1c(-c2ccoc2)nc2cnccc21	%Inh	1%
O=C(Nc1n[nH]c2nc(-c3ccccc3)c(Br)cc12)C1CC1	%Inh	0%
O=C(Nc1ccc2c(c1)OCO2)NC1CCN(c2ccnc(NCc3ccc(F)cc3)n2)CC1	%Inh	0%

* * *

test system: PRKD3; conditions: concentration: 1 μM, replicates: in singlicate; n = 1
Listed molecules paired with reported %Inh

molecule	assayed system	endpoint unit	%Inh
COc1cc2nccc(Nc3cccc(Oc4ccccc4)c3)c2cc1OC.Cl	PRKD3	%	31
COc1cc2ncn(-c3cc(OCc4ccc(S(C)(=O)=O)cc4)c(C(N)=O)s3)c2cc1OC	PRKD3	%	18
CN(C)c1cc(-c2ccc3c(N)n[nH]c3c2)nc(N)n1	PRKD3	%	0
CCS(=O)c1ccc(-c2coc3ccc(-c4nnc(C)o4)cc23)cc1 (centres unmarked)	PRKD3	%	0
COc1cc2nccc(Nc3ccc(OCc4ccc(NC(C)=O)cc4)cc3)c2cc1OC.Cl	PRKD3	%	2

* * *

As a worked illustration, we turn to Kd data collected for JAK3(JH1domain-catalytic).

compound	value qualifier	Kd (nM)
COc1cc(Nc2ccnc3ccc(C(F)(F)F)cc23)cc(OC)c1OC [GW577382]	>	10000
Cc1nc(N(C)[C@H]2CN(C(=O)CC#N)CC[C@H]2C)c2cc[nH]c2n1	=	140

Provenance of the data: paper PMC5540273
